I'd appreciate it if you could supply %Inh values for the items below.
# Test system: BMX;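 note: KINOMEscan kinase panel screen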
# particulars: concentration: 1 μM, replicates: in singlicate; n = 1
Numbers only, in %.

- CC(C)c1ccc(O)cc1Nc1ccnc2ccc(C(F)(F)F)cc12: 0
- CC(=O)c1c(C)c2cnc(Nc3ccn(C)n3)nc2n(C2CCCC2)c1=O: 0
- Cc1ccc(NC(=O)Nc2ccc(Cl)cc2)cc1-c1ccc(C(=O)Nc2ccncc2)cc1: 15
- COc1ccc(CSc2nnc(-c3ccc4ncsc4c3)o2)cc1C(F)(F)F: 0
- Cl.Cl.Cl.N#Cc1ccc(CCNc2nccc(-c3cccc(CN4CCNCC4)c3)n2)cc1: 12

# per-item lookup of %Inh; items listed below
1. COC(=O)c1cccc(NC(=O)NC2CCN(c3ccnc(Nc4ccc(OC)cc4)n3)C2)c1 (stereo not drawn)
2. COc1cc2ncnc(Nc3cccc(Br)c3)c2cc1OC.Cl
3. CNc1nc(-c2ccc3c(N)n[nH]c3c2)cc(N2C[C@@H](C(=O)NC3CCCCC3)OC[C@H]2C)n1
4. O=C1NC(=O)C(c2ccc(Cl)cc2)=C1Nc1cccc(Cl)c1

Result:
[3, 10, 23, 3]

The reported measurements were obtained from paper PMC5540273.
